Recorded values, source patent US4123534A.

Experiment: fall in serum triglyceride levels in male rats, 1 mg/kg per os
Format: in vivo
Conditions: 3-methylpyrazole-5-carboxylic acid addition salts
For each of the molecules below, state its fall in serum triglyceride levels.

Supply measured fall in serum triglyceride levels of CCCCN(CCO)CC(O)Cn1cnc2c(N)ncnc21 (stereo not shown) in your reply. ~56%

Supply measured fall in serum triglyceride levels of CCN(CCO)CC(O)Cn1cnc2c(N)ncnc21 (stereo not shown) in your reply. ~34%

Supply measured fall in serum triglyceride levels of CC(C)N(CCO)CC(O)Cn1cnc2c(N)ncnc21 (stereo not shown) in your reply. ~34%
